Test system: Plasmodium falciparum
Test: Antimalarial activity against artemisinin-sensitive parental Plasmodium falciparum 3D7 infected in O positive erythrocytes assessed as reduction in parasite growth incubated for 48 hrs by giemsa staining based assay
Type: functional, organism-based
Settings: 3D7, Erythrocyte
Listed compounds paired with reported IC50
# value in µM; strip the unit string

COMPOUND: COc1ccc(C2NCCc3c2[nH]c2ccccc32)cc1OC (configuration not stated)
QUANTITY_UNIT: µM
IC50: 3.03

Inquiry: Fill in: IC50 of Clc1cc(Cl)c(Cl)c(C2NCCc3c2[nH]c2ccccc32)c1 (configuration not stated) is ___
Reply text: 3.43

====

Tested on: Plasmodium falciparum
Assay: Antimalarial activity against chloroquine-resistant Plasmodium falciparum FcB1 assessed as inhibition of parasite growth
Type: functional, organism-based
pIC50: −log10 of the molar value.
pIC50 of 5 or higher: TRUE. Under 5: FALSE.

COMPOUND: COC(=O)c1cc2c([nH]c3ccccc32)c(C(=O)c2c[nH]c3ccccc23)n1
TESTED_SYSTEM: Plasmodium falciparum
CLASS_LABEL: FALSE

Inquiry: Does `COc1ccc2[nH]cc(C(=O)c3nccc4c3[nH]c3ccc(OC)cc34)c2c1` have a reported pIC50 of at least 5?
Reply text: TRUE

Inquiry: Entry to check: `O=C(O)c1cc2c([nH]c3ccccc32)c(-c2c[nH]c3ccccc23)n1`
Reply text: FALSE

Inquiry: // query: `O=C(c1c[nH]c2ccc(O)cc12)c1nccc2c1[nH]c1ccc(O)cc12`
Reply text: TRUE

Inquiry: Lookup COC(=O)C1Cc2c([nH]c3ccccc23)C(Cc2c[nH]c3ccccc23)N1 (configuration not stated)
Reply text: FALSE
